measurement.target: Human M4 receptors (Homo sapiens)
Construct: expressed in transfected cells; host or cells: HEK293 cells with Promega GloSensor cAMP technology, stably expressing hM4
Sequence (P08173 whole entry): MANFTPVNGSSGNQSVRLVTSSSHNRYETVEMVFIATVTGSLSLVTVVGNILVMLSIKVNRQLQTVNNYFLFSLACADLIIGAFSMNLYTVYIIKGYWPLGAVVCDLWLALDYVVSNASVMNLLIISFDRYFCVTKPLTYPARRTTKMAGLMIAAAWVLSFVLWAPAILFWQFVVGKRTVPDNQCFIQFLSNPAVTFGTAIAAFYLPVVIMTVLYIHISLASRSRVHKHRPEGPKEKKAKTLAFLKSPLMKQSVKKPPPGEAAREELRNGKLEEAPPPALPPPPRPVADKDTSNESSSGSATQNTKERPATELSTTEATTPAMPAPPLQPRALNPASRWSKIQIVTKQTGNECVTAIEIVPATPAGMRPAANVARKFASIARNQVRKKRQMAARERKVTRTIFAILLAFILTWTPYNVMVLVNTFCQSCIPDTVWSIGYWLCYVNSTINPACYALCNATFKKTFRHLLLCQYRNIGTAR
test.protocol: M4 PAM cAMP assay (GloSensor)
Assay type: cell-based
reported.conditions: HEK293 GloSensor cells expressing hM4; with EC20 acetylcholine and isoproterenol; geometric mean of 2-4 determinations unless otherwise indicated
outcome.measure: log10 EC50 (log10 of the value in nM)

In [3]: df
Out[3]:
                                    compound                 measurement_target  outcome_measure  result_value
 0  Cc1ccc([C@H]2C[C@@H]2CC(=O)N2Cc3nc(C)cc(C)c3C2)cn1  Human M4 receptors (Homo sapiens)       log10 EC50          1.86
 1  Cc1cc(C)c2c(n1)CN(C(=O)C[C@H]1C[C@@H]1c1ccccc1)C2 (racemic)  Human M4 receptors (Homo sapiens)       log10 EC50          3.46
 2  Cc1nc2c(c(C)c1Cl)CN(C(=O)C[C@@H]1C[C@H]1c1cncnc1)C2 (single isomer, unassigned)  Human M4 receptors (Homo sapiens)       log10 EC50          0.68
 3  Cc1cc(C)c2c(n1)CN(C(=O)CC1CN(c3ccc4nc(C)cn4n3)C1)C2  Human M4 receptors (Homo sapiens)       log10 EC50          1.40
 4  Cc1cc(CO)nc2c1CN(C(=O)CC1CN(c3cccnc3)C1)C2  Human M4 receptors (Homo sapiens)       log10 EC50          1.24
 5  Cc1nc2c(c(C)c1C)CN(C(=O)CC1CN(c3ccncn3)C1)C2  Human M4 receptors (Homo sapiens)       log10 EC50          0.41
 6  COCc1cc(C)c2c(n1)CN(C(=O)CC1CN(c3ccnc(OC(F)F)c3)C1)C2  Human M4 receptors (Homo sapiens)       log10 EC50          1.36
 7  COc1ccc(C#N)cc1N1CC(CC(=O)N2Cc3nc(C)cc(C)c3C2)C1  Human M4 receptors (Homo sapiens)       log10 EC50          3.13
 8  Cc1cc(C)c2c(n1)CN(C(=O)CC1CN(c3cc(NC(C)C)ncn3)C1)C2  Human M4 receptors (Homo sapiens)       log10 EC50          0.70
 9  Cc1cc(C)c2c(n1)CN(C(=O)CC1CN(c3cccnc3)C1)C2C (single isomer, unassigned) [Example 14]  Human M4 receptors (Homo sapiens)       log10 EC50          3.96
10  Cc1nc2c(c(C)c1C)CN(C(=O)CC1CN(c3ccnc(C(F)F)c3)C1)C2  Human M4 receptors (Homo sapiens)       log10 EC50          0.98
11  Cc1nc2c(c(C)c1C)CN(C(=O)CC1CN(c3ncns3)C1)C2  Human M4 receptors (Homo sapiens)       log10 EC50          0.95
12  COc1nc2c(c(C)c1C)CN(C(=O)CC1CN(c3cccnc3)C1)C2  Human M4 receptors (Homo sapiens)       log10 EC50          1.33
13  COc1nc2c(c(C)c1Cl)CN(C(=O)CC1CN(c3cncnc3)C1)C2  Human M4 receptors (Homo sapiens)       log10 EC50          1.14
14  COCc1nc2c(c(C)c1Cl)CN(C(=O)CC1CN(c3cccnc3)C1)C2  Human M4 receptors (Homo sapiens)       log10 EC50          0.48
15  COCc1nc2c(c(C)c1Cl)CN(C(=O)CC1CN(c3ccnc(C(F)F)c3)C1)C2  Human M4 receptors (Homo sapiens)       log10 EC50          0.34
16  Cc1nc2c(c(C)c1Cl)CN(C(=O)CC1CN(c3ccnc(C(F)F)c3)C1)C2  Human M4 receptors (Homo sapiens)       log10 EC50          0.85

====

In this section we review reported Emax values for a set of compounds.
measurement.target: Human M4 receptors (Homo sapiens)
Construct: expressed in transfected cells; host or cells: HEK293 cells with Promega GloSensor cAMP technology, stably expressing hM4
test.protocol: M4 PAM cAMP assay (GloSensor)
Format: cell-based
reported.conditions: HEK293; read-out: M4 glosensor EC50 Mean Asymptote Maximum (%)
outcome.measure: Emax (%)

                                    compound  units_label  result_value
 0  Cc1cc(C)c2c(n1)CN(C(=O)C[C@H]1C[C@@H]1c1ccccc1)C2 (racemic) [Example 77]            %           176
 1  Cc1nc2c(c(C)c1C)CN(C(=O)OC1CN(c3cccnc3)C1)C2 [Example 36]            %            93
 2  Cc1cc(C)c2c(n1)CN(C(=O)CC1CN(c3ccc(C(=O)N(C)C)cc3)C1)C2 [Example 70]            %            95
 3  Cc1cc(C)c2c(n1)CN(C(=O)CC1CN(c3ccc(C4(C)COC4)cc3)C1)C2 [Example 68]            %          99.4
 4  Cc1nc2c(c(C)c1C)CN(C(=O)CC1CN(c3ncns3)C1)C2 [Example 5]            %          98.2
 5  COCc1nc2c(c(C)c1Cl)CN(C(=O)CC1CN(c3ccnc(OC(F)F)c3)C1)C2 [Example 52]            %           111
 6  Cc1nc2c(c(C)c1Cl)CN(C(=O)CC1CN(c3cccnc3)C1)C2 [Example 13]            %           101
 7  COCc1nc2c(c(C)c1Cl)CN(C(=O)OC1CN(c3cccnc3)C1)C2 [Example 66]            %           163
 8  COc1nc2c(c(C)c1C)CN(C(=O)CC1CN(c3cncnc3)C1)C2 [Example 29]            %          99.8
 9  Cc1c(C(F)F)nc2c(c1C)CN(C(=O)CC1CN(c3ccnc(OC(F)F)c3)C1)C2 [Example 10]            %          99.5
10  Cc1cc(CO)nc2c1CN(C(=O)CC1CN(c3ccnc(C(F)(F)F)c3)C1)C2 [Example 33]            %           100
11  Cc1ccc([C@H]2C[C@@H]2CC(=O)N2Cc3nc(C(F)F)cc(C)c3C2)cn1 [Example 18]            %            89
12  Cc1nc2c(c(C)c1Cl)CN(C(=O)CC1CN(c3nncs3)C1)C2 [Example 44]            %           112
13  Cc1cc(C)c2c(n1)CN(C(=O)CC1CN(c3ccc(C(O)C4CC4)cc3)C1)C2 (centres unmarked) [Example 73]            %          95.3
14  COc1ccc(N2CC(CC(=O)N3Cc4nc(C)cc(C)c4C3)C2)cc1CC#N [Example 74]            %          84.4
15  Cc1ccc([C@H]2C[C@@H]2CC(=O)N2Cc3nc(C)cc(C)c3C2)cn1 [Example 17]            %           107
16  COCc1nc2c(c(C)c1Cl)CN(C(=O)CC1CN(c3ccc(F)nc3)C1)C2 [Example 49]            %           101
17  Cc1cc(CO)nc2c1CN(C(=O)CC1CN(c3cccnc3)C1)C2 [Example 9]            %          86.5
18  Cc1nc2c(c(C)c1C)CN(C(=O)CC1CN(c3cccnc3)C1)C2 [Example 23]            %          92.2
19  Cc1nc2c(c(C)c1C)CN(C(=O)OC1CN(c3nncs3)C1)C2 [Example 65]            %          88.2
20  COCc1cc(C)c2c(n1)CN(C(=O)CC1CN(c3cccnc3)C1)C2 [Example 27]            %          94.4
21  COCc1cc(C)c2c(n1)CN(C(=O)CC1CN(c3ccnc(C(F)(F)F)c3)C1)C2 [Example 7]            %          99.8
22  Cc1nc2c(c(C)c1Cl)CN(C(=O)CC1CN(c3ccnc(C(F)F)c3)C1)C2 [Example 12]            %           119

====

In this section we review reported Emax values for a set of compounds.
measurement.target: Human M4 receptors (Homo sapiens)
Construct: expressed in transfected cells; host or cells: HEK293 cells with Promega GloSensor cAMP technology, stably expressing hM4
test.protocol: M4 PAM cAMP assay (GloSensor)
Type: cell-based
reported.conditions: HEK293; read-out: M4 glosensor EC50 Mean Asymptote Maximum (%)
outcome.measure: Emax (%)

>>> print(df.to_string())
                                    compound  result_value
 0  COCc1nc2c(c(C)c1Cl)CN(C(=O)CC1CN(c3ccnc(C(F)F)c3)C1)C2           110
 1  CNC(=O)c1ccc(N2CC(CC(=O)N3Cc4nc(C)cc(C)c4C3)C2)cc1          89.2
 2  COCc1cc(C)c2c(n1)CN(C(=O)CC1CN(c3cncnc3)C1)C2          89.3
 3  Cc1c(C(F)F)nc2c(c1C)CN(C(=O)CC1CN(c3ccnc(C(F)F)c3)C1)C2           104
 4  Cc1cc(C)c2c(n1)CN(C(=O)OC1CN(c3nncs3)C1)C2            47
 5  Cc1cc(C)c2c(n1)CN(C(=O)CC1CN(c3ccc(C4CC4)cc3)C1)C2          90.6
 6  Cc1cc(C(F)F)nc2c1CN(C(=O)CC1CN(c3cncnc3)C1)C2            86
 7  COCc1nc2c(c(C)c1Cl)CN(C(=O)CC1CN(c3cccnc3)C1)C2           105
 8  COc1ccc(C#N)cc1N1CC(CC(=O)N2Cc3nc(C)cc(C)c3C2)C1          41.5
 9  Cc1cc(CO)nc2c1CN(C(=O)CC1CN(c3ccncn3)C1)C2          93.8
10  Cc1cc(C(F)F)nc2c1CN(C(=O)CC1CN(c3ccnc(C(F)F)c3)C1)C2          93.5
11  COc1nc2c(c(C)c1Cl)CN(C(=O)CC1CN(c3cccnc3)C1)C2           109
12  COCc1nc2c(c(C)c1C)CN(C(=O)CC1CN(c3cncnc3)C1)C2          97.9
13  Cc1nc2c(c(C)c1C)CN(C(=O)OC1CN(c3ncns3)C1)C2          88.5
14  COCc1cc(C)c2c(n1)CN(C(=O)CC1CN(c3ccnc(OC(F)F)c3)C1)C2          99.1
15  Cc1cc(C)c2c(n1)CN(C(=O)CC1CN(c3ccc(CO)cc3)C1)C2          90.5
16  Cc1cc(C(F)F)nc2c1CN(C(=O)CC1CN(c3ccnc(OC(F)F)c3)C1)C2          78.7
17  COc1nc2c(c(C)c1C)CN(C(=O)CC1CN(c3cccnc3)C1)C2           116
18  COCc1cc(C)c2c(n1)CN(C(=O)CC1CN(c3ccnc(C(F)F)c3)C1)C2          99.2
19  Cc1cc(C)c2c(n1)CN(C(=O)C[C@H]1C[C@@H]1c1ccc3cncnc3c1)C2 (racemic)            45
20  CCNc1nccc(N2CC(CC(=O)N3Cc4nc(C)cc(C)c4C3)C2)n1          95.6
21  Cc1cc(C)c2c(n1)CN(C(=O)CC1CN(c3cc(NC(C)C)ncn3)C1)C2          93.9
22  Cc1c(C(F)F)nc2c(c1C)CN(C(=O)OC1CN(c3ncns3)C1)C2          51.8
23  Cc1nc2c(c(C)c1C)CN(C(=O)CC1CN(c3ccncn3)C1)C2          87.9
24  COc1nc2c(c(C)c1Cl)CN(C(=O)CC1CN(c3cncnc3)C1)C2           117
25  Cc1nc2c(c(C)c1Cl)CN(C(=O)C[C@@H]1C[C@H]1c1cncnc1)C2 (single isomer, unassigned)           102
26  Cc1cc(C)c2c(n1)CN(C(=O)CC1Cc3ccccc3C1)C2          71.8
27  Cc1nc2c(c(C)c1Cl)CN(C(=O)OC1CN(c3ncns3)C1)C2          98.6
28  Cc1cc(C(F)F)nc2c1CN(C(=O)CC1CN(c3ccnc(C(F)(F)F)c3)C1)C2          92.4
29  Cc1cc(C)c2c(n1)CN(C(=O)CC1CN(c3ccc4nc(C)cn4n3)C1)C2          88.6
30  Cc1cc(C)c2c(n1)CN(C(=O)CC1CN(c3ccnnc3)C1)C2           103
31  COc1cc(C)c2c(n1)CN(C(=O)CC1CN(c3cccnc3)C1)C2          86.6
32  Cc1c(Cl)c(OC(F)F)nc2c1CN(C(=O)CC1CN(c3cncnc3)C1)C2           109
33  Cc1nc2c(c(C)c1C)CN(C(=O)CC1CN(c3ccnc(C(F)F)c3)C1)C2           106
34  Cc1nc2c(c(C)c1Cl)CN(C(=O)CC1CN(c3ccncn3)C1)C2          96.4
